- System: S. aureus Mu3
- method-notes: Secondary screening of compound 13 analogues in combination with gentamicin (growth by OD 595 nm)
- test-parameters: [Cpd] 20 μM; [Genta] 100 ug/ml; relative to DMSO = 1

compound-structure-string | relative growth
COc1cc(/C=C2\SC(=S)N(CC(=O)O)C2=O)ccc1OCc1ccccc1F | 0.89
COc1cc(/C=C2\SC(=S)N(CC(=O)O)C2=O)ccc1OCc1ccc(Cl)cc1 | 0.61
COc1cc(/C=C2\SC(=S)N(CC(=O)O)C2=O)ccc1OCc1ccc(Br)cc1 | 0.99
O=C(O)CN1C(=O)/C(=C/c2ccccc2)SC1=S | 1.1
